The reported numbers originate from the kinase profiling compilation of Christmann-Franck et al. (2016).

Biological target: HCK (human)
Assay: Caliper, Mobility shift assay off-chip
Details: compound 0.1 µM
Readout Label: inhibition (%)

The examples below pair each entry with its known result.
- Compound: "CN(c1ccc2ccc3ncc(-c4cnn(C)c4)cc3c(=O)c2c1)S(=O)(=O)NCc1ccccn1"
  Endpoint Unit: "%"
  inhibition: 9.4
- Compound: "O=C(CCc1ccc2ccc3ncc(C4CCNCC4)cc3c(=O)c2c1)NCc1ccccn1"
  Endpoint Unit: "%"
  inhibition: -1.8
- Compound: "Cn1cc(-c2cnc3ccc4ccc(CS(=O)(=O)NC5CCCCC5)cc4c(=O)c3c2)cn1"
  Endpoint Unit: "%"
  inhibition: 7.6
- Compound: "Cn1cc(-c2cnc3ccc4ccc(CS(N)(=O)=O)cc4c(=O)c3c2)cn1"
  Endpoint Unit: "%"
  inhibition: -59.1
- Compound: "O=c1c2cc(CS(=O)(=O)NCc3ccccn3)ccc2ccc2ncc(C3CCNCC3)cc12"
  Endpoint Unit: "%"
  inhibition: -2

[P] Cn1cc(-c2cnc3ccc4ccc(CS(=O)(=O)NCC5CCCCN5)cc4c(=O)c3c2)cn1 (configuration not stated)
[Q] Cn1cc(-c2cnc3ccc4ccc(CS(=O)(=O)CCc5ccccn5)cc4c(=O)c3c2)cn1
Inquiry: Smaller inhibition value, P vs Q ? API: response body contains the label of the selected item.
Reply text: Q
(Q: -5.1%, P: -2.1%)
